List of logD values.
assay: Distribution coefficient between octanol and phosphate buffer at pH6.0; format: physicochemical; details: pH 6
metric: logD

[[record]]
cpd_smiles = "Nc1ccc(-c2cc(-c3ccc(N4CCOCC4)cc3)cc(-c3ccc(N4CCOCC4)cc3)[s+]2)cc1"
metric = "logD"
measured_result = 1.3

[[record]]
cpd_smiles = "CN(C)c1ccc(-c2cc(-c3ccc(N)cc3)[te+]c(-c3ccc(N4CCOCC4)cc3)c2)cc1"
metric = "logD"
measured_result = 1

[[record]]
cpd_smiles = "CN(C)c1ccc(-c2cc(-c3ccc(N)cc3)[s+]c(-c3ccc(N4CCOCC4)cc3)c2)cc1"
metric = "logD"
measured_result = 0.9

[[record]]
cpd_smiles = "CN(C)c1ccc(-c2cc(-c3ccc(N(C)C)cc3)[se+]c(-c3ccc(N(C)C)cc3)c2)cc1"
metric = "logD"
measured_result = 2.2

[[record]]
cpd_smiles = "CN(C)c1ccc(-c2cc(-c3ccc(N(C)C)cc3)[s+]c(-c3ccc(N(C)C)cc3)c2)cc1"
metric = "logD"
measured_result = 2.2

[[record]]
cpd_smiles = "Nc1ccc(-c2cc(-c3ccc(N4CCOCC4)cc3)cc(-c3ccccc3)[se+]2)cc1"
metric = "logD"
measured_result = 1.2

[[record]]
cpd_smiles = "Nc1ccc(-c2cc(-c3ccccc3)cc(-c3ccc(N4CCOCC4)cc3)[te+]2)cc1"
metric = "logD"
measured_result = 1

[[record]]
cpd_smiles = "Nc1ccc(-c2cc(-c3ccc(N4CCOCC4)cc3)cc(-c3ccc(N)cc3)[te+]2)cc1"
metric = "logD"
measured_result = 1.9

[[record]]
cpd_smiles = "CN(C)c1ccc(-c2cc(-c3ccc(N)cc3)[te+]c(-c3ccc(N)cc3)c2)cc1"
metric = "logD"
measured_result = 2


---

List of CC50 values.
assay: compound evaluated for dark induced toxicity toward COLO-26, murine colon carcinoma cell line; format: cell-based; conditions: mouse, COLO-26 (Colon 26) murine colon carcinoma cells; read-out: LD50 (the source's name)
metric: CC50 (µM)

[[record]]
cpd_smiles = "CN(C)c1ccc(-c2cc(-c3ccccc3)[s+]c(-c3ccc(N)cc3)c2)cc1"
measured_result = 0.07

[[record]]
cpd_smiles = "CN(C)c1ccc(-c2cc(-c3ccc(N)cc3)[se+]c(-c3ccc(N)cc3)c2)cc1"
measured_result = 1.4

[[record]]
cpd_smiles = "CN(C)c1ccc(-c2cc(-c3ccccc3)[se+]c(-c3ccc(N)cc3)c2)cc1"
measured_result = 2.6

[[record]]
cpd_smiles = "CN(C)c1ccc(-c2cc(-c3ccc(N)cc3)[te+]c(-c3ccc(N)cc3)c2)cc1"
measured_result = 0.5

[[record]]
cpd_smiles = "Nc1ccc(-c2cc(-c3ccc(N4CCOCC4)cc3)cc(-c3ccc(N4CCOCC4)cc3)[se+]2)cc1"
measured_result = 6.9

[[record]]
cpd_smiles = "CN(C)c1ccc(-c2cc(-c3ccc(N)cc3)[s+]c(-c3ccc(N)cc3)c2)cc1"
measured_result = 0.1

[[record]]
cpd_smiles = "c1cc(N2CCOCC2)ccc1-c1cc(-c2ccc(N3CCOCC3)cc2)[se+]c(-c2ccc(N3CCOCC3)cc2)c1"
measured_result = 7.2

[[record]]
cpd_smiles = "CN(C)c1ccc(-c2cc(-c3ccc(N(C)C)cc3)[se+]c(-c3ccc(N(C)C)cc3)c2)cc1"
measured_result = 0.5

[[record]]
cpd_smiles = "Nc1ccc(-c2cc(-c3ccccc3)cc(-c3ccc(N4CCOCC4)cc3)[se+]2)cc1"
measured_result = 0.9

[[record]]
cpd_smiles = "Nc1ccc(-c2cc(-c3ccc(N4CCOCC4)cc3)cc(-c3ccc(N4CCOCC4)cc3)[s+]2)cc1"
measured_result = 66

[[record]]
cpd_smiles = "CN(C)c1ccc(-c2cc(-c3ccc(N)cc3)[s+]c(-c3ccc(N4CCOCC4)cc3)c2)cc1"
measured_result = 0.9

[[record]]
cpd_smiles = "Nc1ccc(-c2cc(-c3ccc(N4CCOCC4)cc3)cc(-c3ccc(N)cc3)[te+]2)cc1"
measured_result = 1.4

[[record]]
cpd_smiles = "CN(C)c1ccc(-c2cc(-c3ccccc3)[te+]c(-c3ccc(N)cc3)c2)cc1"
measured_result = 0.6

[[record]]
cpd_smiles = "Nc1ccc(-c2cc(-c3ccc(N4CCOCC4)cc3)cc(-c3ccc(N)cc3)[s+]2)cc1"
measured_result = 0.8

[[record]]
cpd_smiles = "Nc1ccc(-c2cc(-c3ccc(N4CCOCC4)cc3)cc(-c3ccccc3)[se+]2)cc1"
measured_result = 6.5

[[record]]
cpd_smiles = "CN(C)c1ccc(-c2cc(-c3ccc(N)cc3)[se+]c(-c3ccc(N4CCOCC4)cc3)c2)cc1"
measured_result = 1.5

[[record]]
cpd_smiles = "CN(C)c1ccc(-c2cc(-c3ccccc3)cc(-c3ccc(N)cc3)[se+]2)cc1"
measured_result = 0.4

[[record]]
cpd_smiles = "Nc1ccc(-c2cc(-c3ccc(N4CCOCC4)cc3)cc(-c3ccc(N)cc3)[se+]2)cc1"
measured_result = 3.8

[[record]]
cpd_smiles = "Nc1ccc(-c2cc(-c3ccccc3)cc(-c3ccc(N4CCOCC4)cc3)[s+]2)cc1"
measured_result = 1.8

[[record]]
cpd_smiles = "Nc1ccc(-c2cc(-c3ccc(N4CCOCC4)cc3)cc(-c3ccc(N4CCOCC4)cc3)[te+]2)cc1"
measured_result = 0.8

[[record]]
cpd_smiles = "CN(C)c1ccc(-c2cc(-c3ccc(N(C)C)cc3)[s+]c(-c3ccc(N(C)C)cc3)c2)cc1"
measured_result = 0.5

[[record]]
cpd_smiles = "Nc1ccc(-c2cc(-c3ccccc3)cc(-c3ccc(N4CCOCC4)cc3)[te+]2)cc1"
measured_result = 0.07


---

experiment: Lethal dose evaluated in dark induced toxicity toward COLO-26, murine colon carcinoma cell line; conditions: mouse, COLO-26 (Colon 26) murine colon carcinoma cells; read-out: LD50 (the source's name)
metric: CC50

[[record]]
cpd_smiles = "CN(C)c1ccc(-c2cc(-c3ccc(N)cc3)[te+]c(-c3ccc(N4CCOCC4)cc3)c2)cc1"
metric = "CC50"
measured_result = "500 nM"


---

List of logD values.
assay: Distribution coefficient between octanol and phosphate buffer at pH6.0; type: physicochemical; settings: pH 6
metric: logD

[[record]]
cpd_smiles = "Nc1ccc(-c2cc(-c3ccc(N4CCOCC4)cc3)cc(-c3ccc(N)cc3)[s+]2)cc1"
measured_result = 1.8

[[record]]
cpd_smiles = "CN(C)c1ccc(-c2cc(-c3ccccc3)[te+]c(-c3ccc(N)cc3)c2)cc1"
measured_result = 1.9

[[record]]
cpd_smiles = "Nc1ccc(-c2cc(-c3ccc(N4CCOCC4)cc3)cc(-c3ccc(N4CCOCC4)cc3)[se+]2)cc1"
measured_result = 1.2

[[record]]
cpd_smiles = "Nc1ccc(-c2cc(-c3ccc(N4CCOCC4)cc3)cc(-c3ccc(N)cc3)[se+]2)cc1"
measured_result = 1.5

[[record]]
cpd_smiles = "c1cc(N2CCOCC2)ccc1-c1cc(-c2ccc(N3CCOCC3)cc2)[se+]c(-c2ccc(N3CCOCC3)cc2)c1"
measured_result = 1.2


---

assay: Distribution coefficient between octanol and phosphate buffer at pH6.0; assay type: physicochemical; conditions: pH 6
metric: logD

[[record]]
cpd_smiles = "CN(C)c1ccc(-c2cc(-c3ccccc3)[se+]c(-c3ccc(N)cc3)c2)cc1"
measured_result = 1.2

[[record]]
cpd_smiles = "CN(C)c1ccc(-c2cc(-c3ccc(N)cc3)[se+]c(-c3ccc(N4CCOCC4)cc3)c2)cc1"
measured_result = 1

[[record]]
cpd_smiles = "CN(C)c1ccc(-c2cc(-c3ccc(N)cc3)[s+]c(-c3ccc(N)cc3)c2)cc1"
measured_result = 1.9

[[record]]
cpd_smiles = "CN(C)c1ccc(-c2cc(-c3ccccc3)cc(-c3ccc(N)cc3)[se+]2)cc1"
measured_result = 1.3

[[record]]
cpd_smiles = "CN(C)c1ccc(-c2cc(-c3ccc(N)cc3)[se+]c(-c3ccc(N)cc3)c2)cc1"
measured_result = 1.7

[[record]]
cpd_smiles = "Nc1ccc(-c2cc(-c3ccccc3)cc(-c3ccc(N4CCOCC4)cc3)[s+]2)cc1"
measured_result = 1.1

[[record]]
cpd_smiles = "Nc1ccc(-c2cc(-c3ccc(N4CCOCC4)cc3)cc(-c3ccc(N4CCOCC4)cc3)[te+]2)cc1"
measured_result = 1.6

[[record]]
cpd_smiles = "Nc1ccc(-c2cc(-c3ccccc3)cc(-c3ccc(N4CCOCC4)cc3)[se+]2)cc1"
measured_result = 0.9

[[record]]
cpd_smiles = "CN(C)c1ccc(-c2cc(-c3ccccc3)[s+]c(-c3ccc(N)cc3)c2)cc1"
measured_result = 1.3

